# assayTarget: T1, human VEGF (hVEGF) (human, UniProt P15692 181-395)
# T1 construct: also called VEGF-A
# T1 sequence: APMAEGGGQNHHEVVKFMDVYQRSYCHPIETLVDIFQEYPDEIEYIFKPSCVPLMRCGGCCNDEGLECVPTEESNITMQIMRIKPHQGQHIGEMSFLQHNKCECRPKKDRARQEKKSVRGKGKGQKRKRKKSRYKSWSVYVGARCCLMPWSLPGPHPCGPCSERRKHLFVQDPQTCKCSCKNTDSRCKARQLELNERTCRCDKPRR
# protocolText: SPR single-cycle;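 also: fab variants injected over hVEGF immobilized on a CM5 chip (Biacore T200), threefold dilution series from 0.02 to 50 nM, kinetics fitted with a 1:1 Langmuir model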
measure: kon (M⁻¹ s⁻¹)
Give a bare numeral; the unit M⁻¹ s⁻¹ is implied.

Below, 2 binders whose answers are already recorded.
- G6.31 HC-G65E (Fab, name in Kabat numbering, V domains shown, Fab) VH: EVQLVESGGGLVQPGGSLRLSCAASGFTISDYWIHWVRQAPGKGLEWVAGITPAGGYTYYADSVKERFTISADTSKNTAYLQMNSLRAEDTAVYYCARFVFFLPYAMDYWGQGTLVTVSS VL: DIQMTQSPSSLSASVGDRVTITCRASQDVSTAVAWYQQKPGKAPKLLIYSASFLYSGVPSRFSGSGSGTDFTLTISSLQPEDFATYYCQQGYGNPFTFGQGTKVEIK: 302000
- G6.31 LC-T72R (Fab, V domains shown, Fab) VH: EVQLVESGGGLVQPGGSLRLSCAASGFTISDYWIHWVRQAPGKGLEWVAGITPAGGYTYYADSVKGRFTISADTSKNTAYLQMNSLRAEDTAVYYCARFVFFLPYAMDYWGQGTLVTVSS VL: DIQMTQSPSSLSASVGDRVTITCRASQDVSTAVAWYQQKPGKAPKLLIYSASFLYSGVPSRFSGSGSGTDFRLTISSLQPEDFATYYCQQGYGNPFTFGQGTKVEIK: 292000

# input for lookup
Briefly, kon measured for G6.31 HC-T73E (Fab, name in Kabat numbering, V domains shown, Fab) VH: EVQLVESGGGLVQPGGSLRLSCAASGFTISDYWIHWVRQAPGKGLEWVAGITPAGGYTYYADSVKGRFTISADESKNTAYLQMNSLRAEDTAVYYCARFVFFLPYAMDYWGQGTLVTVSS VL: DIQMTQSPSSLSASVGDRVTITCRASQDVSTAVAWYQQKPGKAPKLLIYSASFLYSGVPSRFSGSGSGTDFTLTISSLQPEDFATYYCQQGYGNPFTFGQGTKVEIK : 550000
